Listed next: entries and their corresponding polymerase ribozyme fitness (log ratio).
B1: TPR 5TU (parent)
chain: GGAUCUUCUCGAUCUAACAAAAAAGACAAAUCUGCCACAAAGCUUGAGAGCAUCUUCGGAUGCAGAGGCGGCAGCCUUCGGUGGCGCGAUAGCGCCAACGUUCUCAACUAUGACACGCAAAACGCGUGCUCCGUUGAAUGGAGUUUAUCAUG

# Variants of: B1
# ASSAY DETAILS: polymerase ribozyme fitness, log enrichment relative to wild type (log ratio); higher = more active; in vitro selection for triplet polymerase activity
Fewer inactive variants are shown than the library holds.

VARIANT NOTATION	CENSORING SIGN	polymerase ribozyme fitness (log ratio)
U6G U7C U55A U135A	=	-4.01
C27A U82G C87G G94A U135A	≤	-4.2
A26U A28C A52C G58A U139G A147C	≤	-4.2
C54U C87U	=	-1.08
C18G A49U A119G	=	-1.83
G71U G83C	=	-2.74
G58U G62U C99U C118U U134C	≤	-4.2
C87U G117A	=	-0.356
C5G U9G G86A	=	-4
C8A C18U A20G U45A G59C G62A C76U C114G	≤	-4.2
C96G A98U C103G A113C G143A	≤	-4.2
